Test system: PBMCs from dogs immunised with CDV
Assay: T-cell proliferation after in vitro stimulation of PBMC with peptide pools, tested with autologous APCs and single peptides
Format: cell-based, dog
Conditions: Table 1; Beagle Foxhound (Dog #19)
Value Type: Stimulatory index
Please respond with just the number, no unit label.

Monomer Sequence	Value Type	Readout Number
EPINQALTLMTKNVKPL (canine distemper virus; synthetic peptide from canine distemper virus fusion protein (CDV-F) designated peptide P29)	Stimulatory index	42
QSLRTSLEQSNKAIEEI (canine distemper virus; synthetic peptide from canine distemper virus fusion protein (CDV-F) designated peptide P38)	Stimulatory index	6.7
SHQYLVIKLIPNASLIE (canine distemper virus; synthetic peptide from canine distemper virus fusion protein (CDV-F) designated peptide P24)	Stimulatory index	9.9

// below: Stimulatory index requested for another sequence
Request: Please report the recorded Stimulatory index for TAAQITAGIALHQSNLN [Peptide P35] .
Response: 57

* * *

Test system: PBMCs from dogs immunised with CDV
Test: T-cell proliferation after in vitro stimulation of PBMC with peptide pools, tested with autologous APCs and single peptides
Format: cell-based, dog
Details: Table 5; Poodle Shitzu
# Stimulatory index per record follows

The examples below pair each entry with its known result.
Monomer Sequence	Stimulatory index
SGRRQRRFAGVVLAGVA (canine distemper virus; synthetic peptide from canine distemper virus fusion protein (CDV-F) designated peptide P32)	<2
TAAQITAGIALHQSNLN [Peptide P35]	<2
KLIPNASLIENCTKAEL (canine distemper virus; synthetic peptide from canine distemper virus fusion protein (CDV-F) designated peptide P25)	<2

Request: Checklist item: Stimulatory index tested on PBMCs from dogs immunised with CDV, entry NLNAQAIQSLRTSLEQS (canine distemper virus; synthetic peptide from canine distemper virus fusion protein (CDV-F) designated peptide P37) , value?
Response: <2

* * *

Test system: PBMCs from dogs immunised with CDV
Test: T-cell proliferation after in vitro stimulation of PBMC with peptide pools, tested with autologous APCs and single peptides
Type: cell-based, dog
Settings: Table 5; Fox Terrier
# Stimulatory index per record follows

Monomer Sequence	Stimulatory index
CIRGDTSSCARTLVSGT (canine distemper virus; synthetic peptide from canine distemper virus fusion protein (CDV-F) designated peptide P68)	<2
SGRRQRRFAGVVLAGVA (canine distemper virus; synthetic peptide from canine distemper virus fusion protein (CDV-F) designated peptide P32)	<2
SSKTQTHTQQDRPPQPS (canine distemper virus; synthetic peptide from canine distemper virus fusion protein (CDV-F) designated peptide P2)	<2

// below: Stimulatory index requested for another sequence
Request: Please report the recorded Stimulatory index for TRSRKQTSHRLKNIPVH (canine distemper virus; synthetic peptide from canine distemper virus fusion protein (CDV-F) designated peptide P10) .
Response: 2.2

* * *

Test system: PBMCs from dogs immunised with CDV
Test: T-cell proliferation after in vitro stimulation of PBMC with peptide pools, tested with autologous APCs and single peptides
Format: cell-based, dog
Settings: Table 2; Beagle Foxhound (Dog #72); one dose of 3 in 1 vaccine
# Stimulatory index per record follows
Please respond with just the number, no unit label.

Monomer Sequence	Stimulatory index
SHQYLVIKLIPNASLIE (canine distemper virus; synthetic peptide from canine distemper virus fusion protein (CDV-F) designated peptide P24)	2.2
TAAQITAGIALHQSNLN [Peptide P35]	1.7

// below: Stimulatory index requested for another sequence
Request: Checklist item: Stimulatory index tested on PBMCs from dogs immunised with CDV, entry KLIPNASLIENCTKAEL (canine distemper virus; synthetic peptide from canine distemper virus fusion protein (CDV-F) designated peptide P25) , value?
Response: 2
